src = patent US20260184782A1

koff listing for selected binders.
- measurement.target: T1, recombinant human TIGIT (human, UniProt Q495A1 22-141, limits assumed)
- T1 construct: recombinant human TIGIT used in Carterra SPR; also called hTIGIT
- T1 sequence (looked up): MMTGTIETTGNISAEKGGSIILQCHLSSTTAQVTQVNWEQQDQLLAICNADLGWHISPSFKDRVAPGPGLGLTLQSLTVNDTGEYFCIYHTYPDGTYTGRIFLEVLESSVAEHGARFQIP
- protocol.description: SPR Carterra, average

binder	unit.string	koff
TIGIT-SC70 (Fc fusion, VHH-Fc fusion in assay) VHH: EVQLVESGGGLVQPGGSLRLSCAASGRTFSSFAMGWFRQAPGKEREFVAAISGSGEDTYYADSVKGRFTISADNSKNTAYLQMNSLKPEDTAVYYCARWRLDRRQGFYYAMDVWGQGTLVTVSS	s⁻¹	0.00359
TIGIT-SC22 (Fc fusion, VHH-Fc fusion in assay) VHH: EVQLVESGGGLVQPGGSLRLSCAASGFTLENNMMGWFRQAPGKEREMVAAISWSGGSALYADSVKGRFTISADNSKNTAYLQMNSLKPEDTAVYYCARGDGYSYGNFDYWGQGTLVTVSS	s⁻¹	0.00118
TIGIT-SC28 (Fc fusion, VHH-Fc fusion in assay) VHH: EVQLVESGGGLVQPGGSLRLSCAASGRTFSTDAMGWFRQAPGKEREFVATINWKDGFTYYADSVKGRFTISADNSKNTAYLQMNSLKPEDTAVYYCAGVGHDYGDYLFDYWGQGTLVTVSS	s⁻¹	0.00179
TIGIT-SC199 (Fc fusion, VHH-Fc fusion in assay) VHH: EVQLVESGGGLVQPGGSLRLSCAASGFSSAQYAMGWFRQAPGKERELVASIDSEGRTNYADSVKGRFTISADNSKNTAYLQMNSLKPEDTAVYYCTRDGGFDPWGQGTLVTVSS	s⁻¹	0.128
TIGIT-SC15 (Fc fusion, VHH-Fc fusion in assay) VHH: EVQLVESGGGLVQPGGSLRLSCAASGSILSFNHIGWFRQAPGKEREGVAWIARYDGSTLYADSVKGRFTISADNSKNTAYLQMNSLKPEDTAVYYCARARGGYVDYWGQGTLVTVSS	s⁻¹	0.00814
